Origin of values: patent US20260374739A1

- target entity: EphrinB2-EphB1 (Homo sapiens)
- Construct: soluble human EphB1-His, EphB2-His, and EphB4-His ectodomains; commercially available human EphrinB1-Fc (EB1), EphrinB2-Fc (EB2), and EphrinB3-Fc (EB3) ectodomain proteins; purchased
- Sequence (P54762 18-540 limits assumed): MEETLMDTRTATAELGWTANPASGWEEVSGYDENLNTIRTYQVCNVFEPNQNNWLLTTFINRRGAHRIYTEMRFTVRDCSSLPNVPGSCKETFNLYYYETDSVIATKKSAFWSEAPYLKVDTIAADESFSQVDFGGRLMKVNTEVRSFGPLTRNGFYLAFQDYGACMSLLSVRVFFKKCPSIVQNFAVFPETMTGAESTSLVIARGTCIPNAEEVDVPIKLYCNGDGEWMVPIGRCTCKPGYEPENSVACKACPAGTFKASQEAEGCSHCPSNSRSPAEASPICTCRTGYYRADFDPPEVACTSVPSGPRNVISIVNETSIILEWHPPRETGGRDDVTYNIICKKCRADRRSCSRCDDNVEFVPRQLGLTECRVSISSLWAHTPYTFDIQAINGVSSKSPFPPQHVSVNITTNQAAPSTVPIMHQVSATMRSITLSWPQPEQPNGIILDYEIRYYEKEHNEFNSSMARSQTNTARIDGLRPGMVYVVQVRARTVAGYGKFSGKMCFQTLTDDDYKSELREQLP
- experimental protocol: Octet 80 sec association/500 sec dissociation, immobilized human EphrinB2-Fc binding to soluble human EphB1-His
- settings: at 3.2 μM and 580 seconds; immobilized human EphrinB2; 25 nM soluble human EphB1
EphB1 Inhibition Percent, Inhibition of Association-Dissociation for assorted compounds
observation type: EphB1 Inhibition Percent, Inhibition of Association-Dissociation (%)

>  <compound>
Oc1c(I)cc(CN2CCOCC2)c2cccnc12

>  <u>
%

>  <quantitative result>
53.2

$$$$
>  <compound>
O=S1(=O)CCN(Cc2cc(I)c(O)c3ncccc23)CC1

>  <u>
%

>  <quantitative result>
50.1

$$$$
>  <compound>
O=S1(=O)CCN(Cc2cc(Br)c(O)c3ncccc23)CC1

>  <u>
%

>  <quantitative result>
48.0

$$$$
>  <compound>
Oc1ccc(CN2CCCCC2)c2cccnc12 [Compound 68, 5-(piperidin-1-ylmethyl)quinolin-8-ol, reference compound]

>  <u>
%

>  <quantitative result>
46.8

$$$$
>  <compound>
Oc1ccc(CN2CCN(c3ccc(Br)cn3)CC2)c2cccnc12

>  <u>
%

>  <quantitative result>
58.6

$$$$
>  <compound>
OCc1ccc2c(CN3CCOCC3)ccc(O)c2n1

>  <u>
%

>  <quantitative result>
17.4

$$$$
>  <compound>
Oc1c(I)cc(CN2CCN(Cc3ccc(Br)cc3)CC2)c2cccnc12

>  <u>
%

>  <quantitative result>
57.2

$$$$
>  <compound>
Oc1c(Br)cc(CN2CCN(Cc3ccc(Br)cc3)CC2)c2cccnc12

>  <u>
%

>  <quantitative result>
49.9

$$$$
>  <compound>
COc1ccc(N2CCN(Cc3ccc(O)c4ncccc34)CC2)cc1

>  <u>
%

>  <quantitative result>
44.5

$$$$
>  <compound>
COc1ccc(N2CCN(Cc3cc(I)c(O)c4ncccc34)CC2)cc1

>  <u>
%

>  <quantitative result>
58.2

$$$$
>  <compound>
COc1ccc2[nH]cc(C(=O)N3CCN(c4ccc(Br)cc4)CC3)c2c1

>  <u>
%

>  <quantitative result>
28.6

$$$$
>  <compound>
Oc1c(Br)cc(CN2CCOCC2)c2cccnc12

>  <u>
%

>  <quantitative result>
48.7

$$$$
>  <compound>
Oc1ccc(CN2CCN(c3ccc(I)cc3)CC2)c2cccnc12

>  <u>
%

>  <quantitative result>
40.5

$$$$
>  <compound>
Cc1ccc2c(CN3CCN(c4ccc(Br)cc4)CC3)ccc(O)c2n1

>  <u>
%

>  <quantitative result>
11.3

$$$$
>  <compound>
Oc1c(Cl)cc(CN2CCOCC2)c2cccnc12

>  <u>
%

>  <quantitative result>
48.4

$$$$
>  <compound>
Oc1ccc(CN2CCN(c3ccc(Br)cc3)CC2)c2cccnc12

>  <u>
%

>  <quantitative result>
36.6

$$$$
>  <compound>
Oc1ccc(CN2CCN(C3CCCC3)CC2)c2cccnc12

>  <u>
%

>  <quantitative result>
23.6

$$$$
>  <compound>
O=S1(=O)CCN(Cc2ccc(O)c3ncccc23)CC1

>  <u>
%

>  <quantitative result>
28.6

$$$$
